# assay.system: T1, human activated protein C (human, UniProt P04070 43-197; P04070 212-461)
# T1 construct: In the plasma assays aPC is generated in human plasma with Protac; also called aPC; haPC
# method.summary: ELISA, plate coated with haPC 1 ug/mL, anti-hIgG-Fc-HRP
pEC50: −log10 of the molar value.

[
  {
    "binder": "HAPC-14-3 (antibody, V domains shown, Whole IgG, backbone hIgG1; also called HPAC 14-3; No. 3) VH: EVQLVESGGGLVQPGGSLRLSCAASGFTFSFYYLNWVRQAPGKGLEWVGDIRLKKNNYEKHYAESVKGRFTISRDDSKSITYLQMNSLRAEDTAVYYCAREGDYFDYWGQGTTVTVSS VL: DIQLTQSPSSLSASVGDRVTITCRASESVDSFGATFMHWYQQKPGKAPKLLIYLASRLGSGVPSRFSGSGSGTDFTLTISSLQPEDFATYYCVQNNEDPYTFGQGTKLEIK",
    "pEC50": 10.21
  }
]
